Value source: ChEMBL document CHEMBL1201862

tested on: BT-549; experiment: NCI tumour cell line growth inhibition, 48 h
Activity calls are given as the source filed them. Cut-off read from the data, not from the text of the source: active = GI50 up to about 1.1 µM and inactive = higher. Square brackets hold non-standard residues; d marks the D form. Peptide text beside a SMILES is read from it. * marks the point of attachment. AllylGly = C=CC[CH](N)C(=O)O; Boc = CC(C)(C)OC(=O)*; OtBu = CC(C)(C)O*
In this exercise, the only acceptable responses are active, inactive

The examples below pair each entry with its known result.
CCOC(=O)CCC(NC(=O)OCc1ccccc1)C(=O)NC(CCC(=O)OCC)C(=O)NNC(=O)OC(C)(C)C (stereo not drawn)
inactive
Cc1ccc(S(=O)(=O)N2CCC(C(=O)O)(c3ccccc3)CC2)cc1
inactive
C[N+](C)(C)CC1CCCC(C[N+](C)(C)C)C1=O (stereo not drawn)
inactive
CCOc1cn(C2CC(O)C(CO)O2)c(=O)[nH]c1=O (stereo not drawn)
inactive
C=CCC(NC(=O)C(CC(=O)OC(C)(C)C)NC(=O)OC(C)(C)C)C(=O)OC (stereo not drawn) (Boc-Asp(OtBu)-[AllylGly]-OMe; configuration not given here)
inactive
O=c1c(C(c2ccc(O)cc2)c2c(O)oc3ccccc3c2=O)c(O)oc2ccccc12
inactive
Cc1cc(Cc2cc(C)cc(C(C)(C)C)c2O)c(O)c(Cc2cc(C)cc(C(C)(C)C)c2O)c1
inactive
N=C1C(O)C2(I)c3ccccc3N3C(=N)C(O)C4c5ccccc5N1C4C32 (stereo not drawn)
inactive

--- query ---
Query :: Lab log entry: Cc1cc2c(c(=O)o1)C1=S(SC(c3ccccc3)=C1)S2 (stereo not drawn) — outcome as called in the assay?
Result :: inactive
